From: PubChem BioAssay (NCI)

What growth inhibition was measured for each of the following?
Test: NCI Yeast Anticancer Drug Screen. Data for the mlh1 rad18 strain (AID 175)
Details: S. cerevisiae mlh1 rad18 strain growth inhibition, stronger effect = higher value; at 50.0 µM unless noted
Compounds without any hit were thinned out: in the full panel of roughly 79,000, 15% have a hit.
One number for each entry, in %.

compound="COc1c2c(cc3c1C(=O)c1c(O)cccc1C3=O)CC(O)CC2 (stereo not given)" measure_unit=% reported_measurement=-22.9
compound=COC(=O)NC(=O)c1cn(CCCOC(=O)CCCCCCCCC(=O)OCCCn2cc(C(=O)NC(=O)OC)c(=O)[nH]c2=O)c(=O)[nH]c1=O measure_unit=% reported_measurement=-12.4
compound=O=S1(=O)CS/C(=N\C(=S)N(c2ccccc2)c2ccccc2)N1c1ccccc1 measure_unit=% reported_measurement=2.2
compound=N=C(N)SCCCCCSC(=N)N measure_unit=% reported_measurement=12.8
compound="O=C(NC(CO)Cc1ccccc1)OCc1ccccc1 (stereo not given)" measure_unit=% reported_measurement=-7.65
compound=CCOC(=O)/C(C#N)=C/c1ccccc1Cl measure_unit=% reported_measurement=6.35

For each listed entry, give its growth inhibition.
1. C/C=C/C(=O)Nc1cccc(OC(=O)NC(C)(C)C)c1
2. COC(=O)C1=CO[C@@H](OC2OC(CO)C(O)C(O)C2O)[C@H]2[C@@H]1C=C[C@@]21C=C([C@H](C)OC(=O)/C=C/c2ccc(OC3OC(CO)C(O)C(O)C3O)cc2)C(=O)O1 (stereo not given in full)
3. Cc1ccc(OCC(=O)N2N=C(c3ccccc3)CC2(O)c2ccccc2)cc1 (stereo not given)
4. COP(=O)(OC)/C(=C/c1cn(C(C)=O)c2ccccc12)NC(C)=O

(A)
1: 1.65; 2: -20.1; 3: -24.2; 4: -8.25

====

Assay: NCI Yeast Anticancer Drug Screen. Data for the cln2 rad14 strain (AID 165);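 further: 0% = growth equal to vehicle treated cultures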
Conditions: S. cerevisiae cln2 rad14 strain, stronger effect = higher value; at 50.0 µM unless noted
Method: Growth inhibition of yeast strains with defined genetic alterations is measured as a screen for potential anti-cancer activity. Selected strains with alterations in DNA damage repair or cell cycle control were exposed to compounds and growth inhibition was measured relative to vehicle treated controls. The strain used in this assay is cln2 rad14
This is part of a sample that, as a whole, favours compounds with a hit. Of some 79,000 tested, about 15% had one in any assay.
Kindly supply the reported growth inhibition values for the records listed here.
Numbers only, in %.

Some entries whose results are on file:
molecule="CCOC(=O)C(CCCCNC(=O)CC)NC(=O)CC (centres undefined)" measure_unit=% reported_measurement=3.55
molecule=CCSC(=O)C(F)(F)F measure_unit=% reported_measurement=-1.2

For each listed entry, give its growth inhibition.
1. O=C(Nc1ccc2c(c1)Cc1c(F)cccc1-2)C(F)(F)F
2. O=C(/C=C/c1ccc(OCc2ccccc2)cc1)c1cccc([N+](=O)[O-])c1
3. O=[N+]([O-])c1cccc(/C=C/c2ccnc3ccccc23)c1
4. CON(C)C(=O)CNC(=O)OCC1c2ccccc2-c2ccccc21
5. COc1cccc(/C=C/c2ccnnc2)c1

(A)
1: -7.95; 2: 9.15; 3: 5.65; 4: 2.15; 5: -7.65

Lab note: each molecule below needs its growth inhibition filled in.
1. CC(C)(Br)C(Br)CCC(C)(Br)C(Br)CO (centres undefined)
2. O=C(O)/C=C\C(=O)NNC(=O)/C=C\C(=O)O
3. CC(C)CC1N=C(NN=C(CCl)CCl)OP1(=O)NCCCCCCNP1(=O)OC(NN=C(CCl)CCl)=NC1CC(C)C (centres undefined)
4. Cc1ccc(C2=Nc3cc(C)c(Cl)cc3S(=O)(=O)NN2)cc1
5. CCc1n[nH]c(=O)n1-n1c(C)ccc1C
6. CSc1nc(C)cc(=O)[nH]1

(A)
[-12.1, -18.9, 4.75, -5.2, 3.15, 20]

Hello, I would appreciate it if you could give growth inhibition for each entry below.
1. COc1ccc(-c2nc(N)c3ncn(C4OC(CO)C(O)C4O)c3n2)cc1 (centres undefined)
2. Cc1nc(CO)c(-c2ccc([N+](=O)[O-])cc2)o1
3. Cc1cc(C)nc(NS(=O)(=O)c2ccc(NC(=O)c3ccc(Cl)c4c(Nc5ccc(S(=O)(=O)N=C(N)N)cc5)c5ccccc5nc34)cc2)n1
4. O=C(Cc1ccccc1)c1ccccc1C(=O)NCc1ccncc1

(A)
1: -12.2; 2: -20.4; 3: 29.7; 4: -20.5

State recorded growth inhibition for all listed molecules.
1. O=C1CC(Cc2n[nH]c3c2CCCC3)CC(=O)N1
2. CCOc1ccc2nc(NC(=O)C(=O)C(c3cnc4ccccc4n3)[N+](=O)[O-])sc2c1 (centres undefined)

(A)
1. 7.35
2. 8.95

Please look at the items below and tell me growth inhibition for each one, in order.
1. c1ccc(NN(Cc2cnccn2)c2ccccc2)cc1
2. COc1ccc2c(c1OC(C)=O)-c1cc(OC(C)=O)cc3c1C(C2)N(C(=O)CBr)CC3 (centres undefined)
3. N#C/C(=C\c1cccc2ccccc12)c1ccc(Cl)cc1
4. CC(=O)Nc1nnn(C)n1
5. CN(C)c1ccc(O[Si](Oc2ccc(N(C)C)cc2)(Oc2ccc(N(C)C)cc2)Oc2ccc(N(C)C)cc2)cc1
6. CCc1ccc(NN=Nc2ccccc2C#N)cc1
7. Cn1c(=O)c2nc(SCC(=O)O)n(C)c2n(C)c1=O

(A)
1. -29.9
2. 36
3. -13.7
4. -39.5
5. 29.4
6. -12.7
7. -10.1

Please give growth inhibition, item by item, for the list that follows.
1. O=C(O)CC(O)(c1ccccc1)c1ccccc1
2. CC(C)C1Oc2ccc(Br)cc2C1O (centres undefined)
3. COc1ccc2c3c([nH]c2c1N)C(C)NCC3 (centres undefined)
4. CN(C)C(=O)NN1CCCCCC1
5. CC[N+](C)(CC)CCNC(=O)C(c1ccccc1)c1ccccc1
6. CCC(=O)Cc1nc2n(c1O)/C(=N/C(=O)Nc1ccc(Cl)cc1)N=N2

(A)
1. -7.9
2. -13.1
3. 13.3
4. -14.7
5. 0.5
6. -35.8

For each of the molecules below, state growth inhibition.
1. Cc1ccc(N=Nc2ccc(C)cc2NC(=O)c2cccc3ccccc23)cc1
2. N[N+]#COC1C(C(=O)NN)C1C(=O)NN (centres undefined)
3. O=c1c2ccccc2[nH]c(=S)n1CCc1ccccn1

(A)
1. -90.5
2. 7.75
3. 8.55

For each entry beneath this line, provide reported growth inhibition.
1. Cc1cc(C)nc(NS(=O)(=O)c2ccc(NC(=O)c3cccc4c(Nc5ccc(S(=O)(=O)Nc6nc(C)cc(C)n6)cc5)c5ccc(Cl)cc5nc34)cc2)n1
2. CC(C)=NOc1ccccc1[N+](=O)[O-]
3. O=C(O)/C=C(/CC(=O)O)C(=O)O
4. CC1=NC(C)(C)N(O)C1(C)C
5. Cc1ccc2c(-c3cccc4ccccc34)c3ccccc3cc2c1
6. CCN1CCCC(C(=O)O)(c2ccccc2)CC1 (centres undefined)
7. Cc1cc(=O)oc2nn(CCO)c(C)c12

(A)
[33, -14.7, 0.35, -0.8, -8.4, -39, -41.9]
